- system under test: Murine COX II (Mus musculus, UniProt Q05769)
- Construct: coding region of either human or murine COX-I or human or murine COX-II was cloned
- Sequence (Q05769 18-604): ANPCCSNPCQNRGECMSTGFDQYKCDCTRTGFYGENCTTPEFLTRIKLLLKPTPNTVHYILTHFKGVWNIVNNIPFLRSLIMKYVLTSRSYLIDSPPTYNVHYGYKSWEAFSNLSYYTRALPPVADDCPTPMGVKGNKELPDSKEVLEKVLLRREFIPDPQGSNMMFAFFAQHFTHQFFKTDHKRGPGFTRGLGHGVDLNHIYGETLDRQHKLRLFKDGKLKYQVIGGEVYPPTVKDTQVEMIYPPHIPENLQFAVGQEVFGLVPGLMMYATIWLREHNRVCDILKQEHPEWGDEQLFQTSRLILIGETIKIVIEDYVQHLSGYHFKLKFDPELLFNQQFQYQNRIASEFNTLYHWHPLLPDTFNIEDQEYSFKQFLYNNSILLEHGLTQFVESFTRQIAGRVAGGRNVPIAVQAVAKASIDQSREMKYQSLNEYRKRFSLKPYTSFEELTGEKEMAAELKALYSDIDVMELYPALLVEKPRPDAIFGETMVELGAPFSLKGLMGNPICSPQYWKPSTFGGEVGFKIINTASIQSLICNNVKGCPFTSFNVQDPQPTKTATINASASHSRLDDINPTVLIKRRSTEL
- assay text: COX II activity in vitro (PGE2 ELISA, recombinant enzyme)
- run conditions: arachidonic acid 10 μM, read-out: Murine COX II ID50
pIC50: −log10 of the molar value.
observable: pIC50

# compound Cc1cc(F)ccc1-c1cscc1-c1ccc(S(C)(=O)=O)cc1 ; its pIC50 = > 7.00
